test system: Jurkat T; assay: whole cell deacetylase assay with Boc-Lys(Ac)-AMC in Jurkat T cells; details: Homo sapiens, Jurkat, read-out: whole cell deacetylase IC50, Jurkat T
Quantity: IC50 (nM)

>  <Smiles record>
O=C(/C=C/c1ccc(CN(CCO)CCc2c[nH]c3ccccc23)cc1)NO

>  <System>
Jurkat T

>  <Quantity>
IC50

>  <Unit of measure>
nM

>  <Recorded result>
40

$$$$
